# study_system: human alpha 7-wt nAChR (Homo sapiens)
# Construct: expressed in transfected cells
# Sequence (P36544 23-502): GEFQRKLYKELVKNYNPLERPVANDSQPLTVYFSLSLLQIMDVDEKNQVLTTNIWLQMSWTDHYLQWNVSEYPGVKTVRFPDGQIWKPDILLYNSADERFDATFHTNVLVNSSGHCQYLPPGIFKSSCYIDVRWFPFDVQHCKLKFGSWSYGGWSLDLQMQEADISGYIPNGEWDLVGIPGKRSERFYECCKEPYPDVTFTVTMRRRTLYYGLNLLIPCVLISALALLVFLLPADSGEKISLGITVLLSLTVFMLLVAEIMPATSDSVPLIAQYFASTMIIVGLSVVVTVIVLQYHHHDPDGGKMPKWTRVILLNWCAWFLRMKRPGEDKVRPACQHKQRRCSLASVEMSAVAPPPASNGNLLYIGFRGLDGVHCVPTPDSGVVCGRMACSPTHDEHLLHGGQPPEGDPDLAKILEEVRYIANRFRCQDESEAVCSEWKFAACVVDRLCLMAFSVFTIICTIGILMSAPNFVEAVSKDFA
# run_description: Patch-clamp current recording (whole-cell voltage-clamp, GH4C1 cells)
# Type: cell-based
# Set-up: key: Type 0 compounds minimally change the effect size of the current elicited by 1 mM choline.; Type 1 compounds enhance the effect size of the current elicited by 1 mM choline but minimally alter the kinetics of the receptor.; Type 2 compounds enhance the effect size of the current elicited by 1 mM choline while reducing the rate and/or the extent of desensitization.; Type 3 compounds enhance the effect size of the current elicited by 1 mM choline. When tested at higher concentrations up to 10 µM they completely inhibit desensitization; Type 4 compounds allow for an initial desensitization of the receptor followed by a re-opening of the receptor during agonist application
# test_context: current elicited by 1 mM choline
measured_endpoint: PAM type
I only need the number, thanks.

{"columns": ["compound", "measured_endpoint", "obs_value"],
 "data": [
  ["Cc1cc(-c2cc(F)c(N3C[C@@H](C)O[C@@H](C)C3)cc2CNC(=O)C2CC2)cc(C)n1", "PAM type", 2],
  ["Cc1cc(-c2c(F)cc(N3CCO[C@@H](C(F)(F)F)C3)cc2CNC(=O)c2conc2C)cc(C)n1", "PAM type", 3],
  ["Cc1cc(-c2cc(F)c(N3C[C@@H](C)O[C@@H](C)C3)cc2CNC(=O)CC2CC2)cc(C)n1", "PAM type", 2],
  ["Cc1cc(-c2c(F)cc(N3CCOC(C)C3)cc2CNC(=O)c2cc(C)on2)cc(C)n1 (stereo not drawn)", "PAM type", 2],
  ["Cc1cc(-c2c(Cl)cc(N3C[C@@H](C)O[C@@H](C)C3)cc2CNC(=O)C(C)C)cc(C)n1", "PAM type", 2]
]}

q: Please look at this compound and report its PAM type: Cc1cc(-c2ccc(N3C[C@@H](C)O[C@@H](C)C3)cc2CNC(=O)c2conc2C)cc(C)n1
a: 2

q: Please look at this compound and report its PAM type: Cc1cc(-c2ccc(N3C[C@@H](C)O[C@@H](C)C3)cc2CNC(=O)CC2CC2)cc(C)n1
a: 3

q: Please look at this compound and report its PAM type: CC(C)C(=O)NCc1cc(N2CCOCC2)ccc1-c1ccncc1
a: 0

q: Please look at this compound and report its PAM type: Cc1cc(-c2c(F)cc(N3C[C@@H](C)O[C@@H](C)C3)cc2CNC(=O)C(C)C)ccn1
a: 2

q: Please look at this compound and report its PAM type: Cc1cc(-c2ccc(N3C[C@@H](C)O[C@@H](C)C3)c(CNC(=O)C(C)C)c2)cc(C)n1
a: 3
